Exercise: for every item that follows, state its recorded IC50.
target_entity: R448A HIV-1 RT RNase H (Human immunodeficiency virus type 1 group M subtype B, UniProt P03366, R1047A)
Construct: Amino acid substitutions were introduced into the p66 HIV-1 RT subunit of a HIV-1 RT; His
measurement_protocol: RNase H assay, point-mutant R448A RT
Answers are plain numbers, in µM.

{"columns": ["sample_smiles", "recorded_result"],
 "data": [
  ["O=C(O)c1cn(Cc2ccc(F)cc2)c2ccc(OCc3ccc(OCc4ccccc4)cc3)cc2c1=O", 2.2]
]}

From here, focus on the item given below.
Name the reported IC50 value associated with the molecule O=C(O)c1cn(Cc2ccc(F)cc2)c2ccc(OCc3cccc4ccccc34)cc2c1=O 19.6

The measured values listed here are drawn from paper PMC8279492.
